B1: ZNF8 (parent)
chain: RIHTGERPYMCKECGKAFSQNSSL

- Variants of: B1
- assay info: protein stability index of a GFP-peptide fusion (GPS, HEK-293T) (PSI 1-6); higher = more stable;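 note: lentivirally expressed fusions sorted by FACS into six bins by GFP to DsRed ratio, PSI derived from sequencing read proportions per bin multiplied by bin number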
- condition details: c terminus: a fixed tail appended
protein stability index values by entry
quantity kind: protein stability index

- construct sequence: "RIHTGERPYMCKECGKAFSQCSSL"
  quantity kind: "protein stability index"
  readout value: 2.46
- construct sequence: "RIHTGERPYMCKICGKAFSQNSSL"
  quantity kind: "protein stability index"
  readout value: 1.88
- construct sequence: "RIHTGERPYMCKECGKAFNQNSSL"
  quantity kind: "protein stability index"
  readout value: 2.31
- construct sequence: "RIHTGERPYMCKECGNAFSQNSSL"
  quantity kind: "protein stability index"
  readout value: 1.8
- construct sequence: "RIHTGERPYMCKECGKAFSDNSSL"
  quantity kind: "protein stability index"
  readout value: 2.37
- construct sequence: "RIHTGERPYMCKECSKAFSQNSSL"
  quantity kind: "protein stability index"
  readout value: 3.2
- construct sequence: "RIHTGERPYMCKECGKAFSQNSSP"
  quantity kind: "protein stability index"
  readout value: 3.18
- construct sequence: "RIHTGERPYMTKECGKAFSQNSSL"
  quantity kind: "protein stability index"
  readout value: 2.48
- construct sequence: "RIHTGERPPMCKECGKAFSQNSSL"
  quantity kind: "protein stability index"
  readout value: 2.48
- construct sequence: "RIHTGERPYMCKLCGKAFSQNSSL"
  quantity kind: "protein stability index"
  readout value: 2.3
- construct sequence: "RIHTGERPFMCKECGKAFSQNSSL"
  quantity kind: "protein stability index"
  readout value: 3.21
- construct sequence: "RIHTGERPYMCKEHGKAFSQNSSL"
  quantity kind: "protein stability index"
  readout value: 2.5
- construct sequence: "RIHTGERPYMCKEGGKAFSQNSSL"
  quantity kind: "protein stability index"
  readout value: 3.18
